measured.on: recombinant cynomolgus siglec-2/CD22 His-tag (Macaca fascicularis)
Sequence (A0A2K5WCZ6 entry or part of it): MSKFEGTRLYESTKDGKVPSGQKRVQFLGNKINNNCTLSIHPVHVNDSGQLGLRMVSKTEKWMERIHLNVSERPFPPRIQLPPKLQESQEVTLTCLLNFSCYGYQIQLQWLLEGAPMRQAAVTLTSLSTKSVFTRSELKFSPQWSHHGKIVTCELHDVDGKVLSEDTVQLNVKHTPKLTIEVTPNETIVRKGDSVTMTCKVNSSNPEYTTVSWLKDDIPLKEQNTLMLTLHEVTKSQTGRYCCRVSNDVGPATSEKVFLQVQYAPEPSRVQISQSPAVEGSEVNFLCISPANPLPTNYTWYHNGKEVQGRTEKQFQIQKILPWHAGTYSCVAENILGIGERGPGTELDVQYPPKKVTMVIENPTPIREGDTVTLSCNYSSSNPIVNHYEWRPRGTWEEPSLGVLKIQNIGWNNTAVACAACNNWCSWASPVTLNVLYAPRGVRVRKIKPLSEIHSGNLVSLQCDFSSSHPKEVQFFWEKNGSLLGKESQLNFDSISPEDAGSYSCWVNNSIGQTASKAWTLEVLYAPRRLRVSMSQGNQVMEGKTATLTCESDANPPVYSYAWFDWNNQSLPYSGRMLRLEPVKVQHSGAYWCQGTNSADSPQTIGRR
test: SPR binding to cynomolgus siglec-2/CD22
study.conditions: steady-state analysis, read-out: Cyno CD22 affinity
Procedure: The following proteins were used for CD22 ligand binding: biotinylated human siglec-2/CD22 protein-His-Avitag (Acro Biosystems, Cat #SI2-H82E3), biotinylated mouse siglec-2-Fc-Avi (in-house production), and recombinant cynomolgus siglec-2/CD22 His-tag (R&D systems, Cat #9864-SL-050). Prior to immobilization, CD22 proteins were treated with SialoExo (Genovis, Cat #G1-SM1-020) for 4 hours at 37° C. to remove native sialic acid residues. […]
pKd: −log10 of the molar value.
property.label: pKd

Q: Request the reported pKd associated with `CCCNC(=O)CCOCCOCCOCCOCCn1cc(-c2ccc(CC(=O)NC[C@@H](O)[C@@H](O)[C@@H]3O[C@@](OCCCCCCNc4c(NCCOC)c(=O)c4=O)(C(=O)O)C[C@H](O)[C@H]3NC(=O)CO)cc2)nn1`
Result: > 6.00

Q: Request the reported pKd associated with `C#CCO[C@H]1C[C@](OCc2ccccc2)(C(=O)O)O[C@@H]([C@H](O)[C@H](O)CNC(=O)Cc2ccc(Cl)cc2)[C@@H]1NC(=O)CO`
Result: 5.00 to 6.00

Q: Request the reported pKd associated with `O=C(O)CCCCCCCCCCc1ccc(CC(=O)NC[C@@H](O)[C@@H](O)[C@@H]2O[C@@](OCc3ccccc3)(C(=O)O)C[C@H](O)[C@H]2NC(=O)CO)cc1`
Result: 5.00 to 6.00

Q: Request the reported pKd associated with `C#Cc1ccc(CC(=O)NC[C@@H](O)[C@@H](O)[C@@H]2O[C@@](OCc3ccccc3)(C(=O)O)C[C@H](O)[C@H]2NC(=O)CO)cc1`
Result: 5.00 to 6.00

Q: Request the reported pKd associated with `C#CCOCCCCCCCc1ccc(CC(=O)NC[C@@H](O)[C@@H](O)[C@@H]2O[C@@](OCc3ccccc3)(C(=O)O)C[C@H](O)[C@H]2NC(=O)CO)cc1`
Result: 5.00 to 6.00
